Tested on: HMM-mfMSR1 (monkey MSR1 extracellular domain)
Sequence (as listed by the source): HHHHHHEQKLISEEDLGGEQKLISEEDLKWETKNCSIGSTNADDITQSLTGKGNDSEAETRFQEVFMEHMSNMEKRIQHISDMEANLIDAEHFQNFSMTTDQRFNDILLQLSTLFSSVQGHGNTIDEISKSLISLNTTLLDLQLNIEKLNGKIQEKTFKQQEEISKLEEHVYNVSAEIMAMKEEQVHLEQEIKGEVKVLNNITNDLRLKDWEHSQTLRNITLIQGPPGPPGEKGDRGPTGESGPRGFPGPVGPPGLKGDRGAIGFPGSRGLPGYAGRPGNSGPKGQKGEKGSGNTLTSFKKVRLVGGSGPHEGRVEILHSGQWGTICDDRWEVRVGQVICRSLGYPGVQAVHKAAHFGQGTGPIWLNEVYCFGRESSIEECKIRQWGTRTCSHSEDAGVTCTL
Assay: Biacore surface plasmon resonance binding kinetics of anti-MSR1 mAbs, antibody-capture format
Settings: 25° C.; analyte HMM-mfMSR1; antibody-capture format; NB = no binding observed
QUANTITY MEASURED: ka (M⁻¹ s⁻¹)
Answers are plain numbers, in M⁻¹ s⁻¹.

Reference set, count: 2
| MOLECULE | EXPERIMENTAL VALUE |
| --- | --- |
| H1H27729P-N297Q: anti-MSR1 antibody "made with an N297Q single point mutation in human Fcγ portion" (antibody, V domains shown) VH: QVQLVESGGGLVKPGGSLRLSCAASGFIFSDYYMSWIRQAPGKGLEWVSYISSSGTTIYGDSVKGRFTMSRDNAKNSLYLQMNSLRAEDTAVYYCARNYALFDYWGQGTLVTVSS VL: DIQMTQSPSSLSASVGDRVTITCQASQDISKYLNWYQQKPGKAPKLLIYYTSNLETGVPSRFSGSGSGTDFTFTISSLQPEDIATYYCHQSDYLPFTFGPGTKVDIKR | 269000 |
| H1H27739P-N297Q: anti-MSR1 antibody "made with an N297Q single point mutation in human Fcγ portion" (antibody, V domains shown) VH: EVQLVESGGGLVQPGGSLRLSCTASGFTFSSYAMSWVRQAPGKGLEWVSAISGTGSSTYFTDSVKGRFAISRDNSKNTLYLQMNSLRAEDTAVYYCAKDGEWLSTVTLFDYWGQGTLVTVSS VL: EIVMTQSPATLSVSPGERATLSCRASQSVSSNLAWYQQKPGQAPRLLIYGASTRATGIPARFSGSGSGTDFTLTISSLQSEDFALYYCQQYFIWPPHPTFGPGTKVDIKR | 352000 |

Find the recorded ka belonging to H1H27754P-N297Q: one of "Twelve anti-MSR1 antibodies"; "made with an N297Q single point mutation in human Fcγ portion" (antibody, V domains shown) VH: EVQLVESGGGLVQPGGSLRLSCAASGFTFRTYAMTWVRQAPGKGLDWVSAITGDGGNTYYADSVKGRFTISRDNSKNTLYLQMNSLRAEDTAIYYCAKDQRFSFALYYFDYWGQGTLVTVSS VL: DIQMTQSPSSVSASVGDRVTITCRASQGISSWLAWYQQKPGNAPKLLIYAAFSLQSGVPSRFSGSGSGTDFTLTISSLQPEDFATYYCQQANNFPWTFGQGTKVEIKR and report it.
235000

Just for reference, patent US12497460B2 is where these values come from.
